Can you tell me log10(Ratio) for the items I'm about to list?
# targetOrSystem: UniProt:P97612
# runDescription: Ratio of Kinact to Ki for rat FAAH activity
Heads up, the numbers here are log10 of Ratio in M⁻¹ s⁻¹ units.

log10(Ratio) lookup needed for Cc1cccc(C2CC3(CCN(C(=O)Nc4onc(C)c4C)CC3)C2)c1 , thanks.
3.21

log10(Ratio) lookup needed for Cc1noc(NC(=O)N2CCC3(CC2)CC(c2ccc(F)c(Cl)c2)C3)c1C , thanks.
3.76

log10(Ratio) lookup needed for Cn1nnnc1NC(=O)N1CCC2(CC1)CC(c1ccc(F)c(Cl)c1)C2 , thanks.
3.77

log10(Ratio) lookup needed for Cn1nnnc1NC(=O)N1CCC2(CC1)CC(c1cccc(OC(F)(F)F)c1)CO2 (stereo not given) , thanks.
3.66

log10(Ratio) lookup needed for COc1cccc(C2CC3(CCN(C(=O)Nc4onc(C)c4C)CC3)C2)c1 , thanks.
2.87

log10(Ratio) lookup needed for COc1ccccc1C1CC2(CCN(C(=O)Nc3onc(C)c3C)CC2)C1 , thanks.
2.42

log10(Ratio) lookup needed for Cc1noc(NC(=O)N2CCC3(CC2)CC(c2cccc(Cl)c2)CO3)c1C (stereo in doubt; form 1) , thanks.
3.19

log10(Ratio) lookup needed for Cn1nnnc1NC(=O)N1CCC2(CC1)CC(c1cccc(C(F)(F)F)c1)C2 , thanks.
3.76

log10(Ratio) lookup needed for Cn1nnnc1NC(=O)N1CCC2(CC1)CC(c1cccc(Cl)c1)CO2 (stereo not given) , thanks.
3.29

log10(Ratio) lookup needed for CCc1noc(NC(=O)N2CCC3(CC2)CC(c2cccc(OC(F)(F)F)c2)C3)c1C , thanks.
3.22

log10(Ratio) lookup needed for Cc1noc(NC(=O)N2CCC3(CC2)CC(c2ccc(OC(F)(F)F)cc2)C3)c1C , thanks.
2.36

log10(Ratio) lookup needed for Cc1noc(NC(=O)N2CCC3(CC2)CC(c2cccc(Oc4ccc(C(F)(F)F)cn4)c2)C3)c1C , thanks.
3.98

log10(Ratio) lookup needed for Cc1noc(NC(=O)N2CCC3(CC2)CC(c2ccc(Cl)c(Cl)c2)C3)c1C , thanks.
3.54

log10(Ratio) lookup needed for Cc1noc(NC(=O)N2CCC3(CC2)CC(c2ccc(C(F)(F)F)cc2)CO3)c1C (racemic) , thanks.
2.85

log10(Ratio) lookup needed for Cc1noc(NC(=O)N2CCC3(CC2)CC(c2ccc(C(F)(F)F)cc2)C3)c1C , thanks.
2.54

log10(Ratio) lookup needed for Cc1noc(NC(=O)N2CCC3(CC2)CC(c2cccc(Cl)c2)CO3)c1C (racemic) , thanks.
3.43

log10(Ratio) lookup needed for Cn1nnnc1NC(=O)N1CCC2(CC1)CC(c1cccc(C(F)(F)F)c1)CO2 (stereo in doubt; form 1) , thanks.
3.33

log10(Ratio) lookup needed for Cc1noc(NC(=O)N2CCC3(CC2)CC(c2cccc(C#N)c2)CO3)c1C (racemic) , thanks.
3.00

log10(Ratio) lookup needed for Cc1noc(NC(=O)N2CCC3(CC2)CC(c2ccccc2OC(F)(F)F)C3)c1C , thanks.
2.75

log10(Ratio) lookup needed for Cn1nnc(NC(=O)N2CCC3(CC2)CC(c2cccc(OC(F)(F)F)c2)C3)n1 , thanks.
2.18

====

# targetOrSystem: Fatty-acid amide hydrolase 1 (Rattus norvegicus) (UniProt P97612)
# Sequence (whole entry): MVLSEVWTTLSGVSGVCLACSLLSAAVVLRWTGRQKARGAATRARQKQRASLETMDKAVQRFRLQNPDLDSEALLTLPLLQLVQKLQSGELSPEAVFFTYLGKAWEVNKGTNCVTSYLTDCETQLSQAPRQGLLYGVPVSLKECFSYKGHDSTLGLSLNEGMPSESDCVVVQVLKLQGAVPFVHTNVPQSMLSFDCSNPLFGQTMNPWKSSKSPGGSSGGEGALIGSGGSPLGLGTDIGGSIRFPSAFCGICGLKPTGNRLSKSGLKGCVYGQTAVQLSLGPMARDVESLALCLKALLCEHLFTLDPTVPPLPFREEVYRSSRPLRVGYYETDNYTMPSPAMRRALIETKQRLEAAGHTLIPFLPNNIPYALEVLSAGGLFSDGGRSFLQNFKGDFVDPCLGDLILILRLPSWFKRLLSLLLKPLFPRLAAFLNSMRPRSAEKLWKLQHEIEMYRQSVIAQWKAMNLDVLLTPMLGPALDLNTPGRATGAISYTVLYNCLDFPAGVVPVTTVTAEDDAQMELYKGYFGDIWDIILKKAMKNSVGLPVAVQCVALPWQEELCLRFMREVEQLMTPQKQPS
# runDescription: Ratio of Kinact to Ki for rat FAAH activity
readoutName: Ratio (M⁻¹ s⁻¹)
Give a bare numeral; the unit M⁻¹ s⁻¹ is implied.

Ratio lookup needed for Cc1noc(NC(=O)N2CCC3(CC2)CC(c2ccc(C#N)cc2)CO3)c1C (racemic) , thanks.
26.1

Ratio lookup needed for Cc1noc(NC(=O)N2CCC3(CC2)CC(c2cccc(C(F)(F)F)c2)CO3)c1C (racemic) , thanks.
2680

Ratio lookup needed for Cn1nnnc1NC(=O)N1CCC2(CC1)CC(c1cccc(OC(F)(F)F)c1)C2 , thanks.
4570

Ratio lookup needed for Cc1onc(NC(=O)N2CCC3(CC2)CC(c2cccc(OC(F)(F)F)c2)C3)c1C , thanks.
34.2

Ratio lookup needed for Cc1nnc(NC(=O)N2CCC3(CC2)CC(c2cccc(OC(F)(F)F)c2)C3)o1 , thanks.
2460

Ratio lookup needed for Cc1noc(NC(=O)N2CCC3(CC2)CC(c2cccc(C(F)(F)F)c2)C3)c1C , thanks.
3690

Ratio lookup needed for Cc1noc(NC(=O)N2CCC3(CC2)CC(c2ccc(Cl)c(Cl)c2)CO3)c1C (racemic) , thanks.
4360

Ratio lookup needed for Cc1noc(NC(=O)N2CCC3(CC2)CC(c2ccccc2)CO3)c1C (racemic) , thanks.
315

Ratio lookup needed for Cc1noc(NC(=O)N2CCC3(CC2)CC(c2cccc(OC(F)(F)F)c2)C3)c1C , thanks.
3860

Ratio lookup needed for Cc1noc(NC(=O)N2CCC3(CC2)CC(c2ccc(Cl)cc2)C3)c1C , thanks.
2070
